Origin of values: the Human Domainome abundance scans (Beltran et al. 2025)

B1: Histone H1t, residues 44 to 112; numbered along this chain, P22492 (parent)
chain: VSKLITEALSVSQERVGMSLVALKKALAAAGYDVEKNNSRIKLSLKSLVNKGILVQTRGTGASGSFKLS

# Variants of: B1
# protocolSummary: abundance fitness (aPCA) (normalised: wild type 0, dead -1); higher = more abundant; growth selection in yeast, the domain comes from the species named
# protocolConditions: Homo sapiens
Label T for high-side abundance fitness (at or above -0.2) and F for low-side abundance fitness (below it).

[[record]]
sequencecode = "VSKLITEALSVSQERVGMSLVALKKALAAAGYDVEKNNSRIKLSLKSLVNKGILVQTRGTRASGSFKLS"
category = "T"

[[record]]
sequencecode = "VSKLITEALSVSQERVGMSLVALKKALAAAGYDVEKPNSRIKLSLKSLVNKGILVQTRGTGASGSFKLS"
category = "T"

[[record]]
sequencecode = "VSKLITEALSVSQERVGMSLVALKKALAAAGYDVEKNNSRIKLSLKSLVNKGIYVQTRGTGASGSFKLS"
category = "F"

[[record]]
sequencecode = "VSKLITEALSVSQERVGMSLVALKKALAAAGYDVEKNNSRIKLSLKSLVAKGILVQTRGTGASGSFKLS"
category = "T"

[[record]]
sequencecode = "VSKLITEALSVSQERVGMSLVALKKALAAAGYDVEKNNSRIKLSLKSLVNHGILVQTRGTGASGSFKLS"
category = "F"

[[record]]
sequencecode = "VSKLITEALSVSQERVGMSLVALMKALAAAGYDVEKNNSRIKLSLKSLVNKGILVQTRGTGASGSFKLS"
category = "F"

